target: T1, P. vivax Reticulocyte Binding Protein 2b, residues 161–1454 (P. vivax strain Salvador I, UniProt A5K736, DyLight 488 (NHS ester) in the FRET assay; biotin (BirA site) in the competition ELISA between human mAbs); experiment: flow cytometry on cells; PvRBP2b161–1454 at 4 μg/mL with human mAbs at 5-fold molar excess and reticulocytes, 1 h room temperature; inhibition relative to no mAb; details: both partners purified
T1 construct: PvRBP2b, P. vivax strain Salvador I, PlasmoDB PVX_094255 (total length 2806 amino acids), residues 161-1454; also called PvRBP2b_(161–1454); PvRBP2b; source: recombinant; expressed and purified in a similar manner as PvRBP2b161–470 (E. coli SHuffle T7; HisTrap, Q-Sepharose, size exclusion) or as previously described
Experimental Readout: percent inhibition of PvRBP2b161–1454 binding to reticulocytes

| Binder | Observed |
| --- | --- |
| PvRBP2b human mAb 241242 (antibody, V domains shown, variable region as the Fab heavy chain in PDB 6WN1; cloned into a human IgG1 backbone, full-length antibody; lambda light chain; as the Fab light chain in PDB 6WN1; IgG1; also called 241424 [sic]; source: Expi293 HEK cells, transfected, purified (Protein A, gel filtration)) VH: EVQLLESGGGLVQPGGSLRLSCAVSGFTFRNYALSWVRQAPGKGLDWVSTISASGGATYYADSVKGHFTISRDNSKNILYLDMKSLRAEDTAIYYCARDGGSYTPYFFLDSWGQGALVTVSS VL: SYELTQPASVSVAPGQTAQITCGGNSIGRKSIHWYQHKPGQAPVLVISYDSDRPSGIPERFSGSNSGNTATLTISKVEAGDEADFYCQVRDSDNDHVVFGGGTKLTVL | > 98% |
| PvRBP2b human mAb 273264 (antibody, V domains shown, variable region as the Fab heavy chain in PDB 6WTU; cloned into a human IgG1 backbone, full-length antibody; lambda light chain; as the Fab light chain in PDB 6WTU; IgG1; same clonal group as 258259; source: Expi293 HEK cells, transfected, purified (Protein A, gel filtration)) VH: EVQLLESGGGLVRPGGSQRLSCAASGFTFTPYAMTWVRQAPGKGLEWLSTISGSGGSTSYADSVKGRFTISRDNSKNILYLQMDSLRAEDTALYYCTKDKDEYTFGHNAFDVWGRGTMVTVSS VL: SYELTQAPSVSVAPGQTARITCGGDNIGRTSVHWYQQKPGQAPVLVIFYDNDRPSGIPERFSGSNSGNMATLSISRVEVGDEADYYCQVWDSNNDHPVFGGGTKLTVV | > 98% |
| PvRBP2b human mAb 237235 (antibody, V domains shown, variable region as the Fab heavy chain in PDB 6WM9; cloned into a human IgG1 backbone, full-length antibody; lambda light chain; as the Fab light chain in PDB 6WM9; IgG1; same clonal group as 243244; source: Expi293 HEK cells, transfected, purified (Protein A, gel filtration)) VH: QVQLVESGGGVVQPGRSLRLSCAASGFMFNSYGMHWVRQAPGKGLEWMAFISYDGSDDYYGDSVKGRITISRDNSKNTLFLHINSLRTEDTAVYYCAKESNYGENAFDVWGHGTMVTVSS VL: QSALTQPRSVSGSPGQSVTISCTGTSNDVGFYNFVSWYQHHPGKAPKLMIYDVTERPSGVPDRFSGSKSGNTASLTISGLQAEDEAEYYCCSYAGTYTFVFGHGTKVTVL | 47% |
